measured.target: monoclonal antibody DD-3
assay.text: Competition ELISA with monoclonal antibody DD-3
Type: binding, BALB/c mice
condition.info: competitor vs monoclonal antibody DD-3; plate coated with A-triCDD-RSA
reported.metric: I50 (inhibits antibody binding by 50%)

Some solved cases for reference:
[[record]]
compound = "Clc1cc(Cl)c2c(c1Cl)Oc1ccccc1O2"
value_observed = "> 200 ng"

[[record]]
compound = "ClC1=C(Cl)C2(Cl)C3C(Cl)C(Cl)CC3C1(Cl)C2(Cl)Cl (centres unmarked)"
value_observed = "> 2000 ng"


[Q] Find the measured I50 (inhibits antibody binding by 50%) of Oc1c(Cl)c(Cl)c(Cl)c(Cl)c1Cl and report it.
[A] > 2000 ng

[Q] Give recorded I50 (inhibits antibody binding by 50%). Clc1ccc(-c2cc(Cl)c(Cl)c(Cl)c2Cl)c(Cl)c1
[A] > 200 ng

[Q] Provide measured I50 (inhibits antibody binding by 50%) value, entry: Clc1ccccc1
[A] > 2000 ng

[Q] Report I50 (inhibits antibody binding by 50%) for Oc1cc(Cl)c(Cl)cc1O
[A] > 2000 ng

[Q] Given Clc1cc(Cl)c2c(c1)Oc1cc(Cl)c(Cl)cc1O2 , respond with its I50 (inhibits antibody binding by 50%).
[A] 0.15 ng

[Q] Specify measured I50 (inhibits antibody binding by 50%) for Clc1ccc(-c2ccc(Cl)c(Cl)c2)cc1Cl .
[A] > 200 ng

====

measured.target: monoclonal antibody DD-3
assay.text: Competition ELISA with monoclonal antibody DD-3
Type: binding, BALB/c mice
condition.info: competitor vs monoclonal antibody DD-3; plate coated with A-triCDD-RSA
reported.metric: I50 (inhibits antibody binding by 50%)

Use the examples below as a reference point.
[[record]]
compound_structure = "O=C(O)COc1ccc(Cl)cc1Cl"
reported_metric = "I50 (inhibits antibody binding by 50%)"
value_observed = "> 2000 ng"

[[record]]
compound_structure = "O=[N+]([O-])c1c(Cl)ccc2c1Oc1cc(Cl)c(Cl)cc1O2"
reported_metric = "I50 (inhibits antibody binding by 50%)"
value_observed = "0.15 ng"


Field: next compound
[Q] Look up I50 (inhibits antibody binding by 50%) of Clc1ccc(C(c2ccc(Cl)cc2)C(Cl)(Cl)Cl)cc1 and report it.
[A] > 2000 ng

====

# I50 (inhibits antibody binding by 50%) per entry
measured.target: monoclonal antibody DD-3
assay.text: Competition ELISA with monoclonal antibody DD-3
Type: binding, BALB/c mice
condition.info: competitor vs monoclonal antibody DD-3; plate coated with A-triCDD-RSA

Worked cases, answers included:
[[record]]
compound = "ClC1=C(Cl)C2(Cl)C3C4C=CC(C4)C3C1(Cl)C2(Cl)Cl (centres unmarked)"
value_observed = "> 2000 ng"

[[record]]
compound = "ClC1C(Cl)C(Cl)C(Cl)C(Cl)C1Cl (centres unmarked)"
value_observed = "> 2000 ng"

[[record]]
compound = "Clc1ccc2oc3c(Cl)c(Cl)c(Cl)c(Cl)c3c2c1Cl"
value_observed = "> 200 ng"

[[record]]
compound = "OCC(Cl)(Cl)Cl"
value_observed = "> 2000 ng"

[[record]]
compound = "ClC1=C(Cl)C2(Cl)C3C4CC(C5OC45)C3C1(Cl)C2(Cl)Cl (centres unmarked)"
value_observed = "> 2000 ng"

[[record]]
compound = "Clc1cc2oc3cc(Cl)c(Cl)cc3c2cc1Cl"
value_observed = "0.9 ng"


[Q] Identify I50 (inhibits antibody binding by 50%) associated with the compound Nc1c(Cl)ccc2c1Oc1cc(Cl)c(Cl)cc1O2
[A] > 0.04 ng

[Q] Give the value of I50 (inhibits antibody binding by 50%) reported for the following: Clc1cc(-c2cc(Cl)c(Cl)c(Cl)c2Cl)c(Cl)c(Cl)c1Cl
[A] > 200 ng

[Q] Please list I50 (inhibits antibody binding by 50%) recorded for the compound Clc1cc2c(cc1Cl)Oc1c(cc(Cl)c(Cl)c1Cl)O2
[A] 0.15 ng

[Q] Return reported I50 (inhibits antibody binding by 50%). Input compound: Clc1c(Cl)c(Cl)c2c(c1Cl)Oc1c(Cl)c(Cl)c(Cl)c(Cl)c1O2
[A] > 200 ng

[Q] Please report I50 (inhibits antibody binding by 50%) for the following compound: O=C(O)COc1cc(Cl)c(Cl)cc1Cl
[A] > 2000 ng

[Q] Indicate the recorded I50 (inhibits antibody binding by 50%) value for this compound: O=[N+]([O-])c1cc(Cl)cc(Cl)c1O
[A] > 2000 ng

[Q] Identify the reported I50 (inhibits antibody binding by 50%) for the following entry. Clc1ccc(-c2c(Cl)cc(Cl)c(Cl)c2Cl)c(Cl)c1Cl
[A] > 200 ng

[Q] Consider the compound Clc1ccc(Cl)c(-c2c(Cl)c(Cl)c(Cl)c(Cl)c2Cl)c1 . State its measured I50 (inhibits antibody binding by 50%).
[A] > 200 ng

====

measured.target: monoclonal antibody DD-5
assay.text: Competition ELISA with monoclonal antibody DD-5
Type: binding, Biozzi mice
condition.info: competitor vs monoclonal antibody DD-5; plate coated with A-triCDD-RSA
reported.metric: I50 (inhibits antibody binding by 50%)

[[record]]
compound = "ClC1=C(Cl)C2(Cl)C3C4CC(C5OC45)C3C1(Cl)C2(Cl)Cl (stereo not drawn)"
reported_metric = "I50 (inhibits antibody binding by 50%)"
value_observed = "> 2000 ng"

[[record]]
compound = "Clc1ccc(-c2cc(Cl)c(Cl)c(Cl)c2Cl)c(Cl)c1"
reported_metric = "I50 (inhibits antibody binding by 50%)"
value_observed = "> 10 ng"


// below: I50 (inhibits antibody binding by 50%) requested for another compound
[Q] Hello, please tell me recorded I50 (inhibits antibody binding by 50%) for this one: Oc1c(Cl)c(Cl)c(Cl)c(Cl)c1Cl
[A] > 2000 ng

====

measured.target: monoclonal antibody DD-1
assay.text: Competition ELISA with monoclonal antibody DD-1
Format: binding, Biozzi mice
condition.info: competitor vs monoclonal antibody DD-1; plate coated with A-triCDD-RSA
Each record here notes measured I50 (inhibits antibody binding by 50%).

[[record]]
compound = "Oc1ccc(Cl)cc1Cl [2,4-Dichlorophenol]"
value_observed = "2000 ng"


[Q] State its I50 (inhibits antibody binding by 50%) for this compound: Clc1cc(Cl)c2c(c1Cl)Oc1ccccc1O2 [1,2,4-Tri-CDD]
[A] > 200 ng

[Q] Answer with the recorded I50 (inhibits antibody binding by 50%) for the compound listed here: OCC(Cl)(Cl)Cl [2,2,2-Tricholoroethanol, 2,2,2-Tricholoro-ethanol]
[A] > 2000 ng

[Q] For the compound Clc1cc(-c2cc(Cl)c(Cl)c(Cl)c2Cl)c(Cl)c(Cl)c1Cl [2,2',3,3',4,4',5,5'-Octa-CBP] , give its reported I50 (inhibits antibody binding by 50%).
[A] > 200 ng

====

Form field: I50 (inhibits antibody binding by 50%) (one value per entry).
measured.target: monoclonal antibody DD-1
assay.text: Competition ELISA with monoclonal antibody DD-1
Assay type: binding, Biozzi mice
condition.info: competitor vs monoclonal antibody DD-1; plate coated with A-triCDD-RSA
Source text: In this case the hybridomas were then screened for their ability to distinguish A-triCDD-BSA and A-triCDD-RSA from BSA and RSA. On the basis of this initial screen about 25 stable, antibody-producing colonies were isolated, subcloned, and frozen. […] A-TriCDD-RSA was adsorbed onto the surface of the wells of a microtiter plate. […] Results are then expressed as a fraction of the response in wells with no competitor. […]

[[record]]
compound = "O=[N+]([O-])c1cc(Cl)cc(Cl)c1O"
value_observed = "> 2000 ng"


Now look at this entry.
[Q] Please supply the value of reported I50 (inhibits antibody binding by 50%) for the item Clc1ccc2c(c1)Oc1c(Cl)c(Cl)c(Cl)c(Cl)c1O2
[A] > 2 ng

====

measured.target: monoclonal antibody DD-5
assay.text: Competition ELISA with monoclonal antibody DD-5
Format: binding, Biozzi mice
condition.info: competitor vs monoclonal antibody DD-5; plate coated with A-triCDD-RSA
# I50 (inhibits antibody binding by 50%) values compiled below

Use these answered entries as a reference point.
[[record]]
molecule = "Clc1c(Cl)c(Cl)c2c(oc3c(Cl)c(Cl)c(Cl)c(Cl)c32)c1Cl"
value_observed = "> 10 ng"

[[record]]
molecule = "O=C1C2(Cl)C3(Cl)C4(Cl)C(Cl)(Cl)C5(Cl)C3(Cl)C1(Cl)C5(Cl)C24Cl (centres unmarked)"
value_observed = "> 2000 ng"

[[record]]
molecule = "Clc1ccccc1"
value_observed = "> 2000 ng"

[[record]]
molecule = "OCC(Cl)(Cl)Cl"
value_observed = "> 2000 ng"

[[record]]
molecule = "Clc1cc2oc3cc(Cl)c(Cl)cc3c2cc1Cl"
value_observed = "1 ng"

[[record]]
molecule = "Clc1c(Cl)c(Cl)c2c(c1Cl)Oc1c(Cl)c(Cl)c(Cl)c(Cl)c1O2"
value_observed = "> 10 ng"

[[record]]
molecule = "Oc1cc(Cl)c(Cl)cc1Cl"
value_observed = "> 2000 ng"

[[record]]
molecule = "ClC1=C(Cl)C2(Cl)C3C(Cl)C=CC3C1(Cl)C2(Cl)Cl (centres unmarked)"
value_observed = "> 2000 ng"

[[record]]
molecule = "Clc1ccc(Cl)c(-c2c(Cl)c(Cl)c(Cl)c(Cl)c2Cl)c1"
value_observed = "> 10 ng"

[[record]]
molecule = "Oc1ccc(Cl)cc1Cl"
value_observed = "> 2000 ng"


[Q] Please list I50 (inhibits antibody binding by 50%) recorded for the molecule Clc1ccc(-c2c(Cl)cc(Cl)c(Cl)c2Cl)c(Cl)c1Cl
[A] > 10 ng

[Q] Give reported I50 (inhibits antibody binding by 50%) value for Clc1ccc(Cl)c(-c2c(Cl)c(Cl)c(Cl)c(Cl)c2Cl)c1Cl
[A] > 10 ng

[Q] Consider the molecule O=[N+]([O-])c1cc(Cl)cc(Cl)c1O and give its recorded I50 (inhibits antibody binding by 50%).
[A] > 2000 ng

[Q] Assign I50 (inhibits antibody binding by 50%) to the following record: Clc1ccc(-c2ccc(Cl)c(Cl)c2)cc1Cl
[A] > 10 ng

[Q] In one line, give reported I50 (inhibits antibody binding by 50%) of the entry O=S1OCC2C(CO1)C1(Cl)C(Cl)=C(Cl)C2(Cl)C1(Cl)Cl (centres unmarked) [Endosulfan] .
[A] > 2000 ng

[Q] Assign I50 (inhibits antibody binding by 50%) to the following record: Clc1ccc(C(c2ccc(Cl)cc2)C(Cl)(Cl)Cl)cc1
[A] > 2000 ng

[Q] Note I50 (inhibits antibody binding by 50%) for the molecule shown: Nc1c(Cl)ccc2c1Oc1cc(Cl)c(Cl)cc1O2
[A] > 0.02 ng
